Origin of values: PubChem BioAssay AID264

Tested on: nude mice, LX-1 lung xenograft intrarenal, tumor weight T/C
Assay: NCI In Vivo Anticancer Drug Screen. Data for tumor model Human Lung LX-1 Xenograft (intrarenal inoculation) in NU/NU Swiss (nude) mice
Settings: endpoint: mean tumor weight change; dose: 25.0 mg/kg/injection; schedule: Q01DX010 (sc); vehicle: saline; higher = larger tumour
Records with an inconclusive call do not appear.
OUTCOME MEASURE: T/C

MOLECULE: C(CC1CO1)C1CO1 (stereo not drawn)
OUTCOME MEASURE: T/C
RESULT: 104 % of control
--
MOLECULE: O=C(O)CC(NC(=O)CP(=O)(O)O)C(=O)O (stereo not drawn)
OUTCOME MEASURE: T/C
RESULT: 51 % of control
--
MOLECULE: CS(=O)(=O)OCCN(CCOS(C)(=O)=O)c1ccc(C=O)cc1
OUTCOME MEASURE: T/C
RESULT: 71 % of control
--
MOLECULE: CNC(=O)ON(C(C)=O)C(=O)NC
OUTCOME MEASURE: T/C
RESULT: 102 % of control
--
MOLECULE: NC1=NCN(C2OC(CO)C(O)C2O)C(=O)N1 (stereo not drawn)
OUTCOME MEASURE: T/C
RESULT: 117 % of control
--
MOLECULE: C=CS(=O)(=O)c1ccccc1
OUTCOME MEASURE: T/C
RESULT: 57 % of control
--
MOLECULE: CC1(C)N=C(N)N=C(N)N1c1ccc(F)c(C(F)(F)F)c1
OUTCOME MEASURE: T/C
RESULT: 33 % of control
--
MOLECULE: O=c1n(CC2CO2)c(=O)n(CC2CO2)c(=O)n1CC1CO1 (stereo not drawn)
OUTCOME MEASURE: T/C
RESULT: 56 % of control
--
MOLECULE: O=C1C=C(C2OC(CO)C(O)C2O)C(=O)N1 (stereo not drawn)
OUTCOME MEASURE: T/C
RESULT: 66 % of control
--
MOLECULE: COc1cccc2c1C(=O)c1c(O)c3c(c(O)c1C2=O)C[C@H](O)C[C@@H]3OC1CC(N)C(O)C(C)O1 (stereo partly drawn)
OUTCOME MEASURE: T/C
RESULT: 101 % of control
--
MOLECULE: Nc1cc2[nH]cnc2c(=O)[nH]1
OUTCOME MEASURE: T/C
RESULT: 25 % of control
--
MOLECULE: N=C(N)Sc1ccccn1
OUTCOME MEASURE: T/C
RESULT: 158 % of control
--
MOLECULE: CN(CO)c1nc(N(C)CO)nc(N(C)CO)n1
OUTCOME MEASURE: T/C
RESULT: 92 % of control
